pEC50 values recorded for 5-hydroxytryptamine receptor 2A (Homo sapiens, UniProt P28223)
Just the number, please; pEC50 means minus log10 of the concentration in mol/L.

Please review the entries below; each comes with its answer.
>>> reading("COc1cc(CCNCc2cccc3c2OCC3)c(OC)cc1Br")
8.34
>>> reading("COc1cc(CCNCc2cccc(OC)c2O)c(OC)cc1Br")
7.47
>>> reading("COc1cc(CCNCc2c(OC)cccc2OC)c(OC)cc1Br")
5.27

Next:
Ask: Give pEC50 (5-hydroxytryptamine receptor 2A (Homo sapiens, UniProt P28223)) of the following molecule: COc1cc(CCNCc2cccc(OC)c2F)c(OC)cc1Br
Result: 6.98

---

biological target: 5-hydroxytryptamine receptor 2A (Homo sapiens); assay: Binding affinity to 5-HT2A receptor (unknown origin) by PDSP assay
Sequence (P28223 whole entry): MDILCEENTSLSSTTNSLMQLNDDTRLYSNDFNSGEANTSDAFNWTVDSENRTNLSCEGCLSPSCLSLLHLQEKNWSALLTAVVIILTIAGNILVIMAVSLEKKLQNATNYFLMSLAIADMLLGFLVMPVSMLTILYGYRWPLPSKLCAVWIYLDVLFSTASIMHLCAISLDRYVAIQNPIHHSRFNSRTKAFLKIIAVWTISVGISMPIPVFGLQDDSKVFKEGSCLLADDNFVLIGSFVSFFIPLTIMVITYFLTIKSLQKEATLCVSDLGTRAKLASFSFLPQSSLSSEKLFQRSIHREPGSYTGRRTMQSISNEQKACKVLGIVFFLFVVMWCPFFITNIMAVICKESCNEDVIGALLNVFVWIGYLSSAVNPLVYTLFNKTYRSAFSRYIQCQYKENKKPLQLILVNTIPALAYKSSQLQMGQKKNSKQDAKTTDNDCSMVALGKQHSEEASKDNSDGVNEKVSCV
Endpoint label: pKi
Just the number, please; pKi means minus log10 of the concentration in mol/L.

>>> reading("COc1cc(CCNCc2cccc3cc[nH]c23)c(OC)cc1Br")
7.89
>>> reading("COc1ccc(CNCCc2cc(OC)c(Br)cc2OC)c(OC)c1")
7.70
>>> reading("COc1cc(CCNCc2ccccn2)c(OC)cc1Br")
7.41
>>> reading("COc1cc(CCNCc2cccc(OC)c2O)c(OC)cc1Br")
9.70
>>> reading("COc1cc(CCNCc2cccc3ccoc23)c(OC)cc1Br")
9.22

Ask: Give pKi (5-hydroxytryptamine receptor 2A (Homo sapiens)) of the following compound: COc1cc(CCNCc2cccc(OC)c2F)c(OC)cc1Br
Result: 8.48

Ask: Give pKi (5-hydroxytryptamine receptor 2A (Homo sapiens)) of the following compound: COc1cc(CCNCc2c(OC)cccc2OC)c(OC)cc1Br
Result: 6.50

Ask: Give pKi (5-hydroxytryptamine receptor 2A (Homo sapiens)) of the following compound: COc1cc(CCNCc2cccc3nc[nH]c23)c(OC)cc1Br
Result: 8.11

Ask: Give pKi (5-hydroxytryptamine receptor 2A (Homo sapiens)) of the following compound: COc1cc(CCNCc2cccnc2OC)c(OC)cc1Br
Result: 7.10

Ask: Give pKi (5-hydroxytryptamine receptor 2A (Homo sapiens)) of the following compound: COc1cc(CCNCc2cccc3ccsc23)c(OC)cc1Br
Result: 8.77

Ask: Give pKi (5-hydroxytryptamine receptor 2A (Homo sapiens)) of the following compound: COc1cc(CCNCc2cccc(OC)c2OC)c(OC)cc1Br
Result: 8.51

Ask: Give pKi (5-hydroxytryptamine receptor 2A (Homo sapiens)) of the following compound: COc1cc(CCNCc2cccc3cn[nH]c23)c(OC)cc1Br
Result: 7.92

Ask: Give pKi (5-hydroxytryptamine receptor 2A (Homo sapiens)) of the following compound: COc1cc(CCNCc2cccnc2)c(OC)cc1Br
Result: 7.08

Ask: Give pKi (5-hydroxytryptamine receptor 2A (Homo sapiens)) of the following compound: COc1cc(CCNCc2ccncc2)c(OC)cc1Br
Result: 6.85

Ask: Give pKi (5-hydroxytryptamine receptor 2A (Homo sapiens)) of the following compound: COc1cc(CCNCc2ccc[nH]c2=O)c(OC)cc1Br
Result: 6.91

Ask: Give pKi (5-hydroxytryptamine receptor 2A (Homo sapiens)) of the following compound: COc1cc(CCNCc2cccc3c2OCC3)c(OC)cc1Br
Result: 9.70

Ask: Give pKi (5-hydroxytryptamine receptor 2A (Homo sapiens)) of the following compound: COc1cc(CCNCc2cccc(O)c2)c(OC)cc1Br
Result: 8.87

Ask: Give pKi (5-hydroxytryptamine receptor 2A (Homo sapiens)) of the following compound: COc1ccc(OC)c(CNCCc2cc(OC)c(Br)cc2OC)c1
Result: 7.51

Ask: Give pKi (5-hydroxytryptamine receptor 2A (Homo sapiens)) of the following compound: COc1cccc(CNCCc2cc(OC)c(Br)cc2OC)c1
Result: 9.36

Ask: Give pKi (5-hydroxytryptamine receptor 2A (Homo sapiens)) of the following compound: COc1cc(CCNCc2cccc3ncoc23)c(OC)cc1Br
Result: 7.96
